Target: FLuc-C-HiBiT (Photinus pyralis, UniProt P08659)
Construct: firefly luciferase with C-terminal HiBiT tag, E. coli expressed
Sequence (P08659 whole entry, looked up): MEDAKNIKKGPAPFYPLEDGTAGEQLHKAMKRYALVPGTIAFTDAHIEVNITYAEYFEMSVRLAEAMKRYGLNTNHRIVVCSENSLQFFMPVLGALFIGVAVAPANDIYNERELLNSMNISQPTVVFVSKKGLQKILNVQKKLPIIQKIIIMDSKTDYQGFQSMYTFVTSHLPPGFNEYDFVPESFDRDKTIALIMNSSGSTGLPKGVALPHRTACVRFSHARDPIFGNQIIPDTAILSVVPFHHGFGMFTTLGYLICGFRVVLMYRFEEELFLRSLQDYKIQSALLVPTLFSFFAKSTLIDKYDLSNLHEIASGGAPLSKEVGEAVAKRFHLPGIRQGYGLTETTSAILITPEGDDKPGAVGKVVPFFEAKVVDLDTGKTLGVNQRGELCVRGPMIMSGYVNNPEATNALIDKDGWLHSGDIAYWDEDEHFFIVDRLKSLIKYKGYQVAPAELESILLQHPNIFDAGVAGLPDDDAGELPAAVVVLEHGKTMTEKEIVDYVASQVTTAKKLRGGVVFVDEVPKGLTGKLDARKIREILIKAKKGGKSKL
Assay: biochemical
Conditions: enzyme activity, 10 uM ATP; read-out: IC50 or SDR50 (mM) / FLuc E

[
  {
    "MOLECULE": "COc1ccc(-c2nc3ccccc3s2)cc1NC(=O)COc1ccc(C)cc1 [NCGC00103030-01]",
    "VALUE MODIFIER": ">",
    "IC50 / mM": 0.03
  },
  {
    "MOLECULE": "Fc1cccc(-c2cnc(Nc3ccc(N4CCOCC4)cc3)c3c2CCO3)c1 [NCGC00412721-01]",
    "VALUE MODIFIER": "=",
    "IC50 / mM": 0.0161
  },
  {
    "MOLECULE": "O=C(O)c1ccc(-c2noc(-c3ccccc3C(F)(F)F)n2)cc1 [NCGC00168105-01]",
    "VALUE MODIFIER": "=",
    "IC50 / mM": 0.0124
  },
  {
    "MOLECULE": "Cc1ccc(-c2cc3c(=O)n(CCNC(=O)c4nn(C)c5ccccc45)ccn3n2)c(C)c1 [NCGC00456971-01]",
    "VALUE MODIFIER": "=",
    "IC50 / mM": 0.00157
  },
  {
    "MOLECULE": "CCC(C(=O)NCCn1ccn2nc(-c3ccc(OC)cc3)cc2c1=O)c1ccccc1 (centres unmarked) [NCGC00456905-01]",
    "VALUE MODIFIER": "=",
    "IC50 / mM": 0.0111
  },
  {
    "MOLECULE": "COc1ccc(Nc2nc(-c3cccc(OC)c3)no2)cc1 [NCGC00422374-01]",
    "VALUE MODIFIER": "=",
    "IC50 / mM": 0.00785
  },
  {
    "MOLECULE": "COc1ccc(C(=O)Nc2ccc3n(c2=O)C[C@H]2C[C@@H]3CN(C(=O)CCCC(=O)O)C2)cc1 [NCGC00397987-01]",
    "VALUE MODIFIER": "=",
    "IC50 / mM": 0.0157
  },
  {
    "MOLECULE": "Cc1ccc(-c2cccc(COc3cnc4c(ccn4CC(=O)O)c3)c2)c(C)c1 [NCGC00418282-01]",
    "VALUE MODIFIER": ">",
    "IC50 / mM": 0.03
  }
]
